assay: chemical genetic growth profiling, strain panel (AID 1159580);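 note: tested at 20 µM; growth read once vehicle control cultures reached saturation at 30 °C; 1 = growth at the plate median or of vehicle wells; lower values mean less growth of the strain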; conditions: S. cerevisiae deletion strains, growth OD, locus YOL078W, strain AVO1
Screen size: about 5,500 compounds; about 2,000 (36%) were called active. Roughly 18% stayed inconclusive and do not appear here. Cut-off read from the data, not from the text of the source: active = normalized growth mostly below about 0.91 (no sharp cut-off); inconclusive = no clear call, values can overlap the other calls; inactive = mostly above about 0.92. Some of the results follow.
Outcome (select one): 1 (yes) (active), 0 (no) (inactive)

Here are 10 molecules together with their reported answers.
O=C(c1ccc2ccccc2c1)N1CCN(c2ccnc3cc(Cl)ccc23)CC1 : 0 (no)
Cn1c(CSCCOc2ccccc2)nnc1SCc1ccc(Cl)cc1Cl : 0 (no)
N#CC(C#N)=C/C=C(/Sc1ccc(F)c(Cl)c1)c1ccc(Cl)cc1 : 0 (no)
O=C(NC(=O)c1c(F)cccc1Cl)OCc1ccc(Cl)cc1Cl : 0 (no)
CCOC(=O)/C(=N/Nc1c(Cl)cccc1Cl)c1csc(N)n1 : 0 (no)
CC(C)c1ccc(NC(=S)NC(=O)c2ccccc2)cc1 : 0 (no)
CSc1cc(-c2ccncc2)nc(-c2cccs2)c1 : 0 (no)
C=CCOc1ccc(/C=C/[N+](=O)[O-])cc1 : 1 (yes)
O=C1CSC(c2cccnc2)N1c1ccc(Cl)cc1Cl (stereo unspecified) : 0 (no)
Cc1ccc(S(=O)(=O)CCSC2=CC(=O)CC(C)(C)S2)cc1 : 0 (no)

Task: What is the recorded call for this molecule in the test? "O=[N+]([O-])c1cc(Br)cnc1Sc1nnc(SCC2CC2)s1"
Output: 0 (no)

Task: What is the recorded call for this molecule in the test? CCOC(=O)C1=C(N)OC2=C(C(=O)CC(C)(C)C2)C1c1ccc(Cl)cc1Cl (stereo unspecified)
Output: 0 (no)

Task: What is the recorded call for this molecule in the test? "CC(=O)Nc1ccc(/C=C/[N+](=O)[O-])cc1"
Output: 0 (no)

Task: What is the recorded call for this molecule in the test? "Fc1cccc(Cl)c1CSc1nncn1-c1ccc(OCc2ccccc2)cc1"
Output: 0 (no)

Task: What is the recorded call for this molecule in the test? "CCCc1c(C(=O)Sc2ccccn2)cnn1-c1ccc(Cl)cc1"
Output: 0 (no)

Task: What is the recorded call for this molecule in the test? "Fc1cccc(F)c1NC(=S)Nc1cc(C(F)(F)F)cc(C(F)(F)F)c1"
Output: 0 (no)

Task: What is the recorded call for this molecule in the test? "CSc1ccc(/C=C(\C)[N+](=O)[O-])cc1"
Output: 1 (yes)

Task: What is the recorded call for this molecule in the test? "CC(=O)Nc1ccc([N+](=O)[O-])cc1[N+](=O)[O-]"
Output: 1 (yes)

Task: What is the recorded call for this molecule in the test? "O=C(c1ccccc1)c1cc(Cl)ccc1NC(=S)Nc1ccc(F)cc1"
Output: 0 (no)

Task: What is the recorded call for this molecule in the test? "FC(F)(F)c1cccc(NC(=S)Nc2ccccc2)c1"
Output: 0 (no)

Task: What is the recorded call for this molecule in the test? "C/C(=C\c1ccc2c(c1)OCO2)[N+](=O)[O-]"
Output: 1 (yes)

----------
Below: a set of entries, each annotated with reported normalized growth.
test: chemical genetic growth profiling, strain panel (AID 1159580); conditions: S. cerevisiae deletion strains, growth OD, locus YGR092W, strain DBF2, active compounds read low
The whole screen tested about 5,500 compounds, of which about 2,000 (36%) were called active. Not shown: some 18% with an inconclusive outcome. This is one part of the list.
Lab note: jot the number down without any unit.

Per the record, "CSc1cc(-c2ccncc2)nc(-c2cccs2)c1" has normalized growth of 0.89

Per the record, "COC(=O)C1=C(C)NC(C)=C(C(=O)OC)C1c1ccc(Cl)cc1Cl" has normalized growth of 0.88

Per the record, "Cc1nn(Cc2ccc(C(=O)Sc3ccc(C(F)(F)F)cn3)o2)c(C)c1Br" has normalized growth of 0.855

Per the record, "N#CCC(=O)NNC(=S)Nc1ccc(Cl)c(Cl)c1" has normalized growth of 0.965

Per the record, "CCOc1ccc(/C=C(\C)[N+](=O)[O-])cc1OC" has normalized growth of 0.226

Per the record, "O=[N+]([O-])/C=C/c1ccsc1" has normalized growth of 0.101

Per the record, O=C1CSC(c2cccnc2)N1c1ccc(Cl)cc1Cl (centres undefined) has normalized growth of 0.972

Per the record, "O=[N+]([O-])c1ccccc1CS(=O)(=O)c1nc2ccccc2s1" has normalized growth of 0.537

Per the record, "S=C(N/N=C\c1ccc(Cl)cc1)N/N=C\c1ccc(Cl)cc1" has normalized growth of 0.284

Per the record, "O=[N+]([O-])c1cc(Br)cnc1Sc1nnc(SCC2CC2)s1" has normalized growth of 0.484

Per the record, "CC(=O)Nc1ccc(/C=C/[N+](=O)[O-])cc1" has normalized growth of 0.816

Per the record, "O=c1c(Cl)c(-n2cccn2)cnn1-c1ccc(Cl)cc1Cl" has normalized growth of 0.539

Per the record, "Cc1c(C)c(C)c(CSC(N)=Nc2ccc(F)cc2)c(C)c1C" has normalized growth of 0.975

Per the record, "N#CC(C#N)=C/C=C(/Sc1ccc(F)c(Cl)c1)c1ccc(Cl)cc1" has normalized growth of 0.759

----------
Below: a set of entries, each annotated with reported normalized growth.
assay: chemical genetic growth profiling, strain panel (AID 1159580);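 note: tested at 20 µM; growth read once vehicle control cultures reached saturation at 30 °C; 1 = growth at the plate median or of vehicle wells; lower values mean less growth of the strain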; conditions: S. cerevisiae deletion strains, growth OD, locus YLR262C, strain YPT6, active compounds read low
Out of some 5,500 compounds screened, about 2,000 (36%) were called active. Not shown: some 18% with an inconclusive outcome. This is one part of the list.
Lab note: jot the number down without any unit.

Field: example entries. Status: answers known.
CC(=O)Oc1ccc(Cl)c2cccnc12 : 0.0956
CC/C(=C(\c1ccccc1)c1ccc(OCCN(C)C)cc1)c1ccccc1 : 0.0867
CCN(CC)CCOc1ccc(/C(=C(\Cl)c2ccccc2)c2ccccc2)cc1 : 0.1

Per the record, "COc1ccc(C(Cl)=C(c2ccc(OC)cc2)c2ccc(OC)cc2)cc1" has normalized growth of 1.02

Per the record, "Nc1ncn([C@@H]2O[C@H](CO)[C@@H](O)[C@H]2O)c(=O)n1" has normalized growth of 1.06

----------
assay: chemical genetic growth profiling, strain panel (AID 1159580);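 note: tested at 20 µM; growth read once vehicle control cultures reached saturation at 30 °C; 1 = growth at the plate median or of vehicle wells; lower values mean less growth of the strain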; conditions: S. cerevisiae deletion strains, growth OD, locus YEL061C, strain CIN8, active compounds read low
Hit rate of the full screen: of about 5,500 compounds, about 2,000 (36%) were called active. About 18% were inconclusive and are not listed. This is one part of the list.
// NB: equality with 1 counts as rule not met; only normalized growth strictly below is rule met

Task: Is 1 strictly greater than the compound's reported normalized growth? compound: O=C1C=CC2=C3c4cc(O)c(O)cc4CC3(O)COC2=C1O (stereo unspecified)
Output: rule met

Task: Is 1 strictly greater than the compound's reported normalized growth? compound: "Nc1ccccc1SCC(=O)Nc1c(F)cccc1F"
Output: rule not met

----------
assay: chemical genetic growth profiling, strain panel (AID 1159580);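 note: tested at 20 µM; growth read once vehicle control cultures reached saturation at 30 °C; 1 = growth at the plate median or of vehicle wells; lower values mean less growth of the strain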; conditions: S. cerevisiae deletion strains, growth OD, locus YMR263W, strain SAP30
The whole screen tested about 5,500 compounds, of which about 2,000 (36%) were called active. Roughly 18% stayed inconclusive and do not appear here. Cut-off read from the data, not from the text of the source: active = normalized growth mostly below about 0.91 (no sharp cut-off); inconclusive = no clear call, values can overlap the other calls; inactive = mostly above about 0.92. This is one part of the list.
Outcome (select one): active, inactive

Here are 3 molecules together with their reported answers.
CN(/N=C\c1ccccc1)c1ncc(C(F)(F)F)cc1Cl : inactive
NC(=S)N/N=C\c1cccs1 : inactive
CC(C)N(Cc1ccc(N(C)C)cc1)S(=O)(=O)c1cc(Cl)c(Cl)cc1Cl : inactive

Task: What is the recorded call for this molecule in the test? "CCOc1ccc(/C=C(\C)[N+](=O)[O-])cc1OC"
Output: active

Task: What is the recorded call for this molecule in the test? "N[C@@H](Cc1ccc(O)c(O)c1)C(=O)O"
Output: inactive

Task: What is the recorded call for this molecule in the test? "CC(C)(C)NC[C@@H](O)COc1nsnc1N1CCOCC1"
Output: inactive

Task: What is the recorded call for this molecule in the test? "COc1cc(OC)c2c(=O)c(-c3ccccc3)c(C)oc2c1OC"
Output: inactive

Task: What is the recorded call for this molecule in the test? CCCCC(CC)CN1CN(CC(CC)CCCC)CC(C)(N)C1 (stereo not drawn)
Output: active

Task: What is the recorded call for this molecule in the test? O=C(O)CCCCC1CCSS1 (stereo not drawn)
Output: inactive

Task: What is the recorded call for this molecule in the test? "COc1c2c(cc3c1OCO3)CCN(C)C2"
Output: inactive

Task: What is the recorded call for this molecule in the test? "CN1[C@@H](CC(=O)c2ccccc2)CCC[C@H]1C[C@H](O)c1ccccc1"
Output: inactive

Task: What is the recorded call for this molecule in the test? "Cc1cc(C)c(I)c(C)c1"
Output: inactive

Task: What is the recorded call for this molecule in the test? "C/C=C/c1ccc2c(c1)OCO2"
Output: inactive

Task: What is the recorded call for this molecule in the test? CC(=O)OC1CC(OC(C)=O)C2(C)C(CC(OC(C)=O)C3(C)C2CCC2(C)C(c4ccoc4)CC4OC423)C1(C)C (stereo not drawn)
Output: inactive

Task: What is the recorded call for this molecule in the test? "NC(N)=NC(N)=Nc1cc(C(F)(F)F)cc(C(F)(F)F)c1"
Output: inactive

Task: What is the recorded call for this molecule in the test? "C1CNCCN1"
Output: inactive

Task: What is the recorded call for this molecule in the test? "O=C(N/N=C\C=C\c1ccccc1)c1ccccc1-n1cccc1"
Output: inactive

Task: What is the recorded call for this molecule in the test? "O=S(=O)(O)C1CCNCC1"
Output: inactive

Task: What is the recorded call for this molecule in the test? "Cc1onc(NC(=O)NC(=O)c2c(F)cccc2Cl)c1Br"
Output: inactive

Task: What is the recorded call for this molecule in the test? "CCCCCCNC(=O)NCCCCCC"
Output: inactive

Task: What is the recorded call for this molecule in the test? "COc1ccc2c(c1)[C@@]13CCCC[C@H]1[C@@H](C2)NCC3"
Output: inactive

Task: What is the recorded call for this molecule in the test? "CN1CCN(C=Nc2ncc(C(F)(F)F)cc2Cl)CC1"
Output: inactive

Task: What is the recorded call for this molecule in the test? "CCOC(=O)N/N=C\c1cccs1"
Output: inactive
